System: Reaginic Passive Cutaneous Anaphylaxis (PCA)
assayMethodText: Rat Reaginic Passive Cutaneous Anaphylaxis (PCA)
Type: in vivo
conditionInfo: orally, 5 mg/kg
parameter: inhibition (PCA test), oral

CCn1c2ccccc2c2oc(-c3nnn[nH]3)cc(=O)c21 [H/C2 H5 T]; 70%

# per-item lookup of inhibition (PCA test), oral; items listed below
1. Cn1c2ccc(Cl)cc2c2oc(-c3nnn[nH]3)cc(=O)c21 [8-Cl/CH3 T]
2. Cc1ccc2c(c1)c1oc(-c3nnn[nH]3)cc(=O)c1n2C [8-CH3 /CH3 T]
3. Cn1c2ccccc2c2oc(-c3nnn[nH]3)cc(=O)c21 [H/CH3 T]

Output line:
["33%", "56%", "39%"]

----------
Tested on: Reaginic Passive Cutaneous Anaphylaxis (PCA)
assayMethodText: Rat Reaginic Passive Cutaneous Anaphylaxis (PCA)
Type: in vivo
conditionInfo: ip, 5 mg/kg, 10-15 min before intravenous antigen challenge, read-out: percent inhibition (PCA test)
parameter: inhibition in vivo at 5 mg/kg (%)
Give bare numbers, in %.

Previously resolved entries follow.
Cn1c2c([N+](=O)[O-])cc([N+](=O)[O-])cc2c2oc(C(=O)O)cc(=O)c21 [6,8-di-NO2 /CH3 A, reference compound]; 0
Cn1c2ccc(Cl)cc2c2oc(C(=O)Nc3nnn[nH]3)cc(=O)c21; 100
Cn1c2c([N+](=O)[O-])cc([N+](=O)[O-])cc2c2oc(C(=O)Nc3nnn[nH]3)cc(=O)c21; 48

Return reported inhibition in vivo at 5 mg/kg values for all items listed beneath this line.
1. Cn1c2ccc([N+](=O)[O-])cc2c2oc(C(=O)O)cc(=O)c21 [8-NO2 /CH3 A, reference compound]
2. O=c1cc(-c2nnn[nH]2)oc2c3ccccc3n(-c3ccccc3)c12
3. Cn1c2ccccc2c2oc(C(=O)O)cc(=O)c21 [H/CH3 A, reference compound]

Output line:
1: 100; 2: 100; 3: 100

Need inhibition in vivo at 5 mg/kg for each of these compounds.
1. Cc1ccc2c(c1)c1oc(-c3nnn[nH]3)cc(=O)c1n2C
2. Cn1c2ccc([N+](=O)[O-])cc2c2oc(C(=O)Nc3nnn[nH]3)cc(=O)c21
3. Cn1c2ccccc2c2oc(-c3nnn[nH]3)cc(=O)c21
4. Cn1c2ccc(Cl)cc2c2oc(-c3nnn[nH]3)cc(=O)c21

Output line:
1. 100
2. 100
3. 100
4. 100
